meta.source: ChEMBL document CHEMBL1143133

experiment: Binding affinity to pig cortical membrane 5HT1A receptor; parameters: species or system Sus scrofa
Overview of recorded pKi for various molecules
pKi is defined as minus the log10 of a concentration measured in mol/L.

smi=FCCOc1ccc(CN2CCN(c3ccc(Cl)cc3)CC2)cc1 recorded_number=5.28

(Q) Consider the molecule "COc1cc(CN2CCN(c3ccc(Cl)cc3)CC2)ccc1OCCF" . State its measured pKi.
(A) 4.74

(Q) Respond only with pKi recorded for "Clc1ccc(N2CCN(Cc3cc4ccccn4n3)CC2)cc1"
(A) 5.77

###

molecular target: UniProt P35462; assay: Displacement of [3H]spiperone from human cloned dopamine D3 receptor at 100 uM
Sequence (P35462 whole entry): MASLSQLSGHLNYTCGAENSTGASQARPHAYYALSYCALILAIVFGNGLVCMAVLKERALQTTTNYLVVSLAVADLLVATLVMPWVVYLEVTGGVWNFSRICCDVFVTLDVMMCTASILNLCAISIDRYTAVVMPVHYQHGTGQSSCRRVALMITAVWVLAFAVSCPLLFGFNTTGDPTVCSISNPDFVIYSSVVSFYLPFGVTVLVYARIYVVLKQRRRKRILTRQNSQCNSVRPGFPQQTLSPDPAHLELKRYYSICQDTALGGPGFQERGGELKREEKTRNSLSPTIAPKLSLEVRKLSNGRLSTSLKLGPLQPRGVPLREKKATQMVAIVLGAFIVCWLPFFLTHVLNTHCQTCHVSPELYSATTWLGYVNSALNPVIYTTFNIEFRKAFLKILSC
Activity values for the molecules below.
Give just the number in %; leave the unit off.

Some molecules with recorded Activity:
smi=Clc1ccc(N2CCN(Cc3ccccc3Br)CC2)cc1Cl measured_metric=Activity recorded_number=14
smi=COc1ccccc1N1CCN(Cc2ccc(C#N)cc2)CC1 measured_metric=Activity recorded_number=5
smi=COc1cccc(CN2CCN(c3cccc(OC)c3)CC2)c1 measured_metric=Activity recorded_number=9
smi=Cc1ccc(N2CCN(Cc3ccc(C#N)cc3)CC2)cc1 measured_metric=Activity recorded_number=4
smi=N#Cc1ccc(CN2CCN(c3ccc(F)cc3)CC2)cc1 measured_metric=Activity recorded_number=15

From here, focus on the item given below.
(Q) Hello, please tell me recorded Activity for this one: "Clc1ccccc1N1CCN(Cc2ccccc2Br)CC1"
(A) 4
